Recorded TGI by entry
system: COLO 205 colon; assay: NCI tumour cell line growth inhibition, 48 h
Just the number please, in µM, no unit attached.

Reference set (3 entries):
CCOC(=O)C(=Cc1ccc(C(=O)OC)cc1)C(=O)OCC = 3.59
C=C1C(=O)O[C@H]2[C@H]1CC/C(COC(=O)NCCc1c[nH]c3ccc(OC)cc13)=C\CC[C@@]1(C)O[C@@H]21 = 2.78
CN(C)CCSC(=Nc1ccccc1)N1CCCCC1 = 28.8

Query molecule follows.
# TGI lookup, item O=[Se](=O)c1ccccc1.O=[Se](=O)c1ccccc1.[Cu]
35.4

====

Recorded TGI by entry
tested on: MALME-3M melanoma; assay: NCI tumour cell line growth inhibition, 48 h
Just the number please, in µM, no unit attached.

Reference set (5 entries):
O=C1C(Br)=CC2(C=C1Br)CCNC1=C2C(=O)c2cccnc2C1=O = 21.5
C/C(=N\N=C(/[Se])N1CC2CCC(CC2)C1)c1ccccn1 = 0.567
Cc1cc(C)c(O)c(CN(C)Cc2cc(Cl)cc(Cl)c2O)c1 = 20.6
O=Nc1ccc2ccccc2c1O = 8.51
CCCCc1ccc(Nc2ncc3[nH]cnc3n2)cc1 = 40.6

# TGI lookup, item O=[Se](=O)c1ccccc1.O=[Se](=O)c1ccccc1.[Cu]
31.7

# TGI lookup, item O=C(N/N=C/c1ccccc1O)C(=O)Nc1ccc(F)cc1
82.7
